assay-notes: ABTS cation radical scavenging (734 nm)
settings: 80 µM
ABTS Inhibition % less than 60% is y; ABTS Inhibition % greater than or equal to 60% is n.

Answered cases to consult:
- compound: "COC(=O)C=Cc1cc(OC)c(OC(=O)c2cccnc2)c(OC)c1"
  category-label: "n"
- compound: "COC(=O)C=Cc1cccc(OC(=O)c2cccnc2)c1"
  category-label: "y"
- compound: "O=C(Oc1ccc2c(c1)OCO2)c1cccnc1 [Compound 2h, Benzo[1,3]dioxol-5-yl nicotinate]"
  category-label: "n"
- compound: "COc1cc(C(C)=O)ccc1OC(=O)c1cccnc1 [Compound 2i, 4-Acetyl-2-methoxyphenyl nicotinate]"
  category-label: "y"

Let us examine a further case.
Quick check: ABTS Inhibition % of O=C(Nc1ccc2c(c1)OCO2)c1cccnc1 [Compound 2j, N-(Benzo[1,3]dioxol-5-yl)nicotinamide] under 60%?
y

###

assay-notes: ABTS cation radical scavenging (734 nm)
settings: 80 µM
Given measured ABTS Inhibition %, output met if it is greater than or equal to 60% and not met if not.

Answered cases to consult:
- compound: "O=C1O[C@H]([C@@H](O)CO)C(O)=C1O [Ascorbic acid, reference compound]"
  category-label: "met"
- compound: "CCOc1ccc2nc(NC(=O)c3cccnc3)sc2c1 [Compound 2k]"
  category-label: "not met"

Please check the record O=C(NCc1ccc2c(c1)OCO2)c1cccnc1 [Compound 2e] and state if its ABTS Inhibition % is at or above 60%.
not met

###

assay-notes: DPPH radical scavenging (517 nm)
settings: 100 µM
measured-property: DPPH Inhibition % (%)
Your answer should be a plain number; it is taken to be in %.

Some compounds with known DPPH Inhibition % results, for comparison:
- compound: "O=C(Nc1ccc2c(c1)OCO2)c1cccnc1 [Compound 2j, N-(Benzo[1,3]dioxol-5-yl)nicotinamide]"
  DPPH Inhibition % [%]: 50.1
- compound: "COC(=O)/C=C/c1ccc(OC)c(OC(=O)c2cccnc2)c1 [Compound 2c]"
  DPPH Inhibition % [%]: 51.9
- compound: "COC(=O)C=Cc1ccccc1OC(=O)c1cccnc1 [Compound 2g]"
  DPPH Inhibition % [%]: 61.07
- compound: "O=C(Oc1ccc2c(c1)OCO2)c1cccnc1 [Compound 2h, Benzo[1,3]dioxol-5-yl nicotinate]"
  DPPH Inhibition % [%]: 87.68

State, in one line, measured DPPH Inhibition % of CCOc1ccc2nc(NC(=O)c3cccnc3)sc2c1 [Compound 2k]
52.31

###

assay-notes: DPPH radical scavenging (517 nm)
settings: 60 µM
Each item that follows carries a reported DPPH Inhibition %.
Your answer should be a plain number; it is taken to be in %.

Some compounds with known DPPH Inhibition % results, for comparison:
- compound: "O=C(Nc1ccc2c(c1)OCO2)c1cccnc1 [Compound 2j, N-(Benzo[1,3]dioxol-5-yl)nicotinamide]"
  DPPH Inhibition %, %: 43.7
- compound: "O=C(NCc1ccc2c(c1)OCO2)c1cccnc1"
  DPPH Inhibition %, %: 49.2
- compound: "COc1cc(C(C)=O)ccc1OC(=O)c1cccnc1 [Compound 2i, 4-Acetyl-2-methoxyphenyl nicotinate]"
  DPPH Inhibition %, %: 40.65
- compound: "COC(=O)/C=C/c1ccc(OC(=O)c2cccnc2)c(OC)c1"
  DPPH Inhibition %, %: 87.6

State, in one line, measured DPPH Inhibition % of `COC(=O)C=Cc1ccccc1OC(=O)c1cccnc1`
46.41

State, in one line, measured DPPH Inhibition % of `CCOc1ccc2nc(NC(=O)c3cccnc3)sc2c1`
40.65

State, in one line, measured DPPH Inhibition % of `COC(=O)C=Cc1cccc(OC(=O)c2cccnc2)c1`
41.11

State, in one line, measured DPPH Inhibition % of `COC(=O)C=Cc1cc(OC)c(OC(=O)c2cccnc2)c(OC)c1`
80.5

Data provenance is paper PMC12494831.
